assay.procedure: Self-diffusion NMR (SD-NMR)
Type: physicochemical
study.conditions: B9A loaded with 1 wt % of the specie
Readings of Diffusion coefficient of the Loaded specie for the listed compounds
attribute.measured: Diffusion coefficient of the Loaded specie

>  <compound>
CC(C)c1ccc(O)c(C(C)C)c1 [drawing 3]

>  <observed.measurement>
1.75 ×10^−11 m^2/sec

$$$$
>  <compound>
CC(C)c1cccc(C(C)C)c1O

>  <observed.measurement>
1.54 ×10^−11 m^2/sec

$$$$
>  <compound>
COc1ccc(O)c(C(C)(C)C)c1 [drawing 4]

>  <observed.measurement>
1.78 ×10^−11 m^2/sec

$$$$
>  <compound>
Cc1cc(C(C)(C)C)c(O)c(C(C)(C)C)c1 [drawing 5]

>  <observed.measurement>
1.58 ×10^−11 m^2/sec

$$$$
>  <compound>
CC(C)c1cccc(C(C)C)c1N

>  <observed.measurement>
2.15 ×10^−11 m^2/sec

$$$$

====

assay.procedure: Self-diffusion NMR (SD-NMR)
Format: physicochemical
study.conditions: B9A loaded with 1 wt % of the specie

>  <compound>
CC(C)c1cccc(C(C)C)c1N

>  <Diffusion coefficient of EtOH>
94.6 ×10^−11 m^2/sec

$$$$
>  <compound>
Cc1cc(C(C)(C)C)c(O)c(C(C)(C)C)c1 [drawing 5]

>  <Diffusion coefficient of EtOH>
98.2 ×10^−11 m^2/sec

$$$$
>  <compound>
CC(C)c1cccc(C(C)C)c1O

>  <Diffusion coefficient of EtOH>
98.2 ×10^−11 m^2/sec

$$$$
>  <compound>
COc1ccc(O)c(C(C)(C)C)c1 [drawing 4]

>  <Diffusion coefficient of EtOH>
91.2 ×10^−11 m^2/sec

$$$$
>  <compound>
CC(C)c1ccc(O)c(C(C)C)c1 [drawing 3]

>  <Diffusion coefficient of EtOH>
96.6 ×10^−11 m^2/sec

$$$$

====

assay.procedure: Self-diffusion NMR (SD-NMR)
Assay type: physicochemical
study.conditions: B9A loaded with 1 wt % of the specie
attribute.measured: Diffusion coefficient of PEG400

>  <compound>
CC(C)c1ccc(O)c(C(C)C)c1 [drawing 3]

>  <attribute.measured>
Diffusion coefficient of PEG400

>  <observed.measurement>
26.3 ×10^−11 m^2/sec

$$$$
>  <compound>
Cc1cc(C(C)(C)C)c(O)c(C(C)(C)C)c1 [drawing 5]

>  <attribute.measured>
Diffusion coefficient of PEG400

>  <observed.measurement>
24.3 ×10^−11 m^2/sec

$$$$
>  <compound>
CC(C)c1cccc(C(C)C)c1O

>  <attribute.measured>
Diffusion coefficient of PEG400

>  <observed.measurement>
26.3 ×10^−11 m^2/sec

$$$$
>  <compound>
CC(C)c1cccc(C(C)C)c1N

>  <attribute.measured>
Diffusion coefficient of PEG400

>  <observed.measurement>
26.2 ×10^−11 m^2/sec

$$$$
>  <compound>
COc1ccc(O)c(C(C)(C)C)c1 [drawing 4]

>  <attribute.measured>
Diffusion coefficient of PEG400

>  <observed.measurement>
24.5 ×10^−11 m^2/sec

$$$$

====

assay.procedure: Self-diffusion NMR (SD-NMR)
Format: physicochemical
study.conditions: B9A microemulsion, Loaded (1 wt % propofol)
Readings of Diffusion coefficient of the component for the listed compounds
attribute.measured: Diffusion coefficient of the component

>  <compound>
CCO [Ethanol, ethanol]

>  <observed.measurement>
9.82 × 10^−10 m^2/sec

$$$$
>  <compound>
O [Water, water]

>  <observed.measurement>
1.62 × 10^−9 m^2/sec

$$$$
>  <compound>
CC(O)CO (stereo not shown) [Propylene glycol, propylene glycol]

>  <observed.measurement>
8.45 × 10^−10 m^2/sec

$$$$
>  <compound>
CC(C)c1cccc(C(C)C)c1O [Propofol, 2,6-diisopropyl phenol]

>  <observed.measurement>
1.54 × 10^−11 m^2/sec

$$$$

====

assay.procedure: Self-diffusion NMR (SD-NMR)
Assay type: physicochemical
study.conditions: B9A loaded with 1 wt % of the specie

>  <compound>
CC(C)c1cccc(C(C)C)c1O

>  <Diffusion coefficient of PG>
84.5 ×10^−11 m^2/sec

$$$$
>  <compound>
CC(C)c1cccc(C(C)C)c1N

>  <Diffusion coefficient of PG>
44.8 ×10^−11 m^2/sec

$$$$
>  <compound>
COc1ccc(O)c(C(C)(C)C)c1 [drawing 4]

>  <Diffusion coefficient of PG>
78.3 ×10^−11 m^2/sec

$$$$
>  <compound>
Cc1cc(C(C)(C)C)c(O)c(C(C)(C)C)c1 [drawing 5]

>  <Diffusion coefficient of PG>
79.1 ×10^−11 m^2/sec

$$$$
>  <compound>
CC(C)c1ccc(O)c(C(C)C)c1 [drawing 3]

>  <Diffusion coefficient of PG>
73.6 ×10^−11 m^2/sec

$$$$

====

assay.procedure: Self-diffusion NMR (SD-NMR)
Assay type: physicochemical
study.conditions: B6A microemulsion, Loaded (1 wt % propofol)
Readings of Diffusion coefficient of the component for the listed molecules

>  <molecule>
CC(O)CO (stereo not shown)

>  <Diffusion coefficient of the component>
5.22 × 10^−10 m^2/sec

$$$$
>  <molecule>
CCO

>  <Diffusion coefficient of the component>
6.91 × 10^−10 m^2/sec

$$$$
>  <molecule>
CC(C)c1cccc(C(C)C)c1O

>  <Diffusion coefficient of the component>
1.02 × 10^−11 m^2/sec

$$$$
>  <molecule>
O

>  <Diffusion coefficient of the component>
1.37 × 10^−9 m^2/sec

$$$$

====

assay.procedure: Self-diffusion NMR (SD-NMR)
Format: physicochemical
study.conditions: B9A loaded with 1 wt % of the specie
Readings of Diffusion coefficient of Solutol for the listed molecules

>  <molecule>
CC(C)c1ccc(O)c(C(C)C)c1 [drawing 3]

>  <Diffusion coefficient of Solutol>
1.63 ×10^−11 m^2/sec

$$$$
>  <molecule>
Cc1cc(C(C)(C)C)c(O)c(C(C)(C)C)c1 [drawing 5]

>  <Diffusion coefficient of Solutol>
1.75 ×10^−11 m^2/sec

$$$$
>  <molecule>
CC(C)c1cccc(C(C)C)c1O

>  <Diffusion coefficient of Solutol>
1.50 ×10^−11 m^2/sec

$$$$
>  <molecule>
CC(C)c1cccc(C(C)C)c1N

>  <Diffusion coefficient of Solutol>
1.76 ×10^−11 m^2/sec

$$$$
>  <molecule>
COc1ccc(O)c(C(C)(C)C)c1 [drawing 4]

>  <Diffusion coefficient of Solutol>
1.75 ×10^−11 m^2/sec

$$$$
